- measurement.notes: chemical genetic growth profiling, strain panel (AID 1159580);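 note: tested at 20 µM; growth read once vehicle control cultures reached saturation at 30 °C; 1 = growth at the plate median or of vehicle wells; lower values mean less growth of the strain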
- measurement.setup: S. cerevisiae deletion strains, growth OD, locus YJR016C, strain ILV3, hits give low values
Out of some 5,500 compounds screened, about 2,000 (36%) were called active. Another 18% or so got no clear call; they are omitted. The list shows a part of the results.
With a cut-off of 0.9, any normalized growth strictly below it is called Condition met; any normalized growth meeting it or above is called Condition not met.

compound=CS/C(Nc1cccc(C(F)(F)F)c1)=C(/C#N)S(=O)(=O)c1ccc(Cl)cc1 class_assignment="Condition not met"
compound="S=C(N/N=C\\c1cccs1)NC1CC2CCC1C2 (configuration not stated)" class_assignment="Condition not met"
compound=Cc1ccc2nc(-c3ccc([N+](=O)[O-])o3)oc(=O)c2c1 class_assignment="Condition met"
compound=O=C(c1cc2c(s1)-c1ccccc1CC2)N1CCN(Cc2ccccc2)CC1 class_assignment="Condition not met"
compound=C/C(=N/NC(=O)c1ccc(C(C)(C)C)cc1)c1ccccc1O class_assignment="Condition not met"
compound=Cc1ccc(OCc2n[nH]c(=S)n2Cc2ccccc2)c2c1CCC2 class_assignment="Condition not met"
compound=COc1cc(N2C(=O)C=CC2=O)cc(OC)c1OC class_assignment="Condition not met"
compound=O=C(Nc1cc2c(s1)-c1cc(Cl)ccc1SC2)Oc1ccccc1 class_assignment="Condition not met"
compound=O=c1c(-c2ccccc2)c(O)c2cccc3c4ccccc4n1c23 class_assignment="Condition met"
compound=O=C(NNC(=S)Nc1ccc(Cl)cc1)c1ncc(C(F)(F)F)cc1Cl class_assignment="Condition not met"

----------
Below: a set of entries, each annotated with reported normalized growth.
- measurement.notes: chemical genetic growth profiling, strain panel (AID 1159580);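 note: tested at 20 µM; growth read once vehicle control cultures reached saturation at 30 °C; 1 = growth at the plate median or of vehicle wells; lower values mean less growth of the strain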
- measurement.setup: S. cerevisiae deletion strains, growth OD, locus YNL250W, strain rad50, hits give low values
Screen size: about 5,500 compounds; about 2,000 (36%) were called active. Not shown: some 18% with an inconclusive outcome. This is one part of the list.
property.measured: normalized growth

compound=CC(=O)c1cc2c(cc1O)OC(C)(C)C=C2 result="0.997 (inactive)"
compound=Cc1c(NC(=O)c2cccnc2)c(=O)n(-c2ccccc2)n1C result="0.975 (inactive)"
compound="C[C@]12CCC(=O)C=C1CCC1C2[C@@H](O)C[C@@]2(C)C1CC[C@]2(O)C(=O)COC(=O)CCC(=O)O (stereo partly drawn)" result="1 (inactive)"
compound="C[C@]12CCC(=O)C=C1CCC1C2C(=O)C[C@@]2(C)C1CC[C@]2(O)C(=O)CO (stereo partly drawn)" result="0.999 (inactive)"
compound=COc1cc(O)cc(OC)c1OC result="1.03 (inactive)"
compound=C=C(C)[C@H]1Cc2c(ccc3c2O[C@@H]2COc4cc(OC)c(OC)cc4[C@@H]2C3=O)O1 result="1.02 (inactive)"
compound="CO[C@H]1C[C@H](O[C@H]2[C@H](C)[C@@H](OC3O[C@H](C)C[C@H](N(C)C)[C@H]3OC(C)=O)[C@@H](C)C[C@]3(CO3)C(=O)[C@H](C)[C@@H](OC(C)=O)[C@@H](C)[C@@H](C)OC(=O)[C@@H]2C)O[C@@H](C)[C@@H]1OC(C)=O (stereo partly drawn)" result="1.01 (inactive)"
compound=CC(=O)NO result="0.976 (inactive)"
compound=NC[C@H]1O[C@H](O[C@H]2[C@H](O)[C@@H](O[C@H]3O[C@H](CO)[C@@H](O)[C@H](N)[C@H]3O)[C@H](N)C[C@@H]2N)[C@H](N)C[C@@H]1O result="1.01 (inactive)"
compound="C1CCC(C(CC2CCCCN2)C2CCCCC2)CC1 (stereo not drawn)" result="1.01 (inactive)"
compound=CN[C@@H]1[C@@H](O[C@H]2O[C@H](CO)[C@@H](N)[C@H](O)[C@H]2O)O[C@H]2C[C@@H](N)[C@H](O[C@H]3[C@H](O)[C@@H](O)[C@H](N)C[C@@H]3N)O[C@@H]2[C@@H]1O result="1.01 (inactive)"
compound=CC(=O)[O][Hg][c]1ccccc1 result="0.0635 (active)"
compound="C#CC1(O)CCC2C3CCC4=CC(=O)CCC4(C)C3CCC21C (stereo not drawn)" result="0.978 (inactive)"
compound=NC(=O)NO result="0.996 (inactive)"
compound="CC(=O)[C@@]1(O)CCC2C3CCC4=CC(=O)CC[C@]4(C)C3CC[C@@]21C (stereo partly drawn)" result="1.01 (inactive)"
compound="COc1cc2c(cc1OC)-c1c(oc3c4c(ccc3c1=O)OC(C(C)C)C4)CO2 (stereo not drawn)" result="0.93 (inactive)"
compound="CC(=O)OCC(=O)[C@@]1(O)CCC2C3CCC4=CC(=O)CC[C@]4(C)C3[C@@H](O)C[C@@]21C (stereo partly drawn)" result="0.982 (inactive)"
compound="C#C[C@]1(O)CCC2C3CCC4=Cc5oncc5C[C@]4(C)C3CC[C@@]21C (stereo partly drawn)" result="0.928 (inactive)"

----------
- measurement.notes: chemical genetic growth profiling, strain panel (AID 1159580);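 note: tested at 20 µM; growth read once vehicle control cultures reached saturation at 30 °C; 1 = growth at the plate median or of vehicle wells; lower values mean less growth of the strain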
- measurement.setup: S. cerevisiae deletion strains, growth OD, locus YJR075W, strain HOC1
Among all 5,500 compounds or so, about 2,000 (36%) were called active. Not shown: some 18% with an inconclusive outcome. No stated cut-off is given here; in the data, active means normalized growth mostly below about 0.91 (no sharp cut-off); inconclusive means no clear call, values can overlap the other calls; inactive means mostly above about 0.92. The list shows a part of the results.
Outcomes: active, inactive

molecule=Cc1onc(-c2c(Cl)cccc2Cl)c1C(=O)N[C@@H]1C(=O)N2[C@@H]1SC(C)(C)[C@@H]2C(=O)O class_assignment=inactive
molecule=CCOc1ccc(C(=O)c2cc(O)c(OC)c(OC)c2O)cc1 class_assignment=inactive
molecule=CC(=O)c1cc2cc(Br)ccc2oc1=O class_assignment=inactive
molecule="CCc1cccc2c3c([nH]c12)C(CC)(CC(=O)O)OCC3 (configuration not stated)" class_assignment=inactive
molecule="CC(NCCC(c1ccccc1)c1ccccc1)c1ccccc1 (configuration not stated)" class_assignment=active
molecule=CSc1nc(N)nc(N2CCCCC2)n1 class_assignment=inactive
molecule=CC(=O)Nc1cc2ccccc2oc1=O class_assignment=inactive
molecule=CN(C)C(=O)N=NC(=O)N(C)C class_assignment=inactive
molecule="CC(=O)O[C@H]1CC[C@]2(C)C3CC[C@@]4(C)C(CC5O[C@@]6(CCC(C)CO6)[C@@H](C)C54)C3CC[C@@H]2C1 (some centres not stated)" class_assignment=inactive
molecule=COC(=O)c1ccccc1CSc1nccc(C(F)(F)F)n1 class_assignment=active
molecule=COc1cc2c(cc1OC)-c1cc(=Nc3c(C)cc(C)cc3C)n(C)c(=O)n1CC2 class_assignment=inactive
molecule=O=C(OC[C@H]1O[C@H](OC(=O)c2cc(O)c(O)c(OC(=O)c3cc(O)c(O)c(O)c3)c2)[C@H](OC(=O)c2cc(O)c(O)c(OC(=O)c3cc(O)c(O)c(O)c3)c2)[C@@H](OC(=O)c2cc(O)c(O)c(OC(=O)c3cc(O)c(O)c(O)c3)c2)[C@@H]1OC(=O)c1cc(O)c(O)c(OC(=O)c2cc(O)c(O)c(O)c2)c1)c1cc(O)c(O)c(OC(=O)c2cc(O)c(O)c(O)c2)c1 class_assignment=active
molecule=CC(=O)c1cc2ccccc2oc1=O class_assignment=inactive
molecule=Cc1ccc(N=Cc2cccs2)cc1Cl class_assignment=inactive
molecule=COc1c2occc2c(OC)c2c(=O)cc(C)oc12 class_assignment=inactive
molecule="NCC1OC(OC2C(CO)OC(OC3C(O)C(N)CC(N)C3OC3OC(CO)C(O)CC3N)C2O)C(N)C(O)C1OC1OC(CO)C(O)C(O)C1O (configuration not stated)" class_assignment=inactive
molecule=CN(C(=O)Nc1ccccc1)n1cnc2ccccc2c1=O class_assignment=inactive
molecule="COc1ccc(CCN(C)CCCC(C#N)(c2cc(OC)c(OC)c(OC)c2)C(C)C)cc1OC (configuration not stated)" class_assignment=inactive
molecule=NS(=O)(=O)c1ccc(-n2ncc3ccccc3c2=O)cc1 class_assignment=inactive
molecule=CC[C@@H](CO)NC(=O)[C@@H]1C=C2c3cccc4[nH]cc(c34)C[C@H]2N(C)C1 class_assignment=inactive
molecule=CCOc1ccc(C(=O)c2ccc(O)c(O)c2O)cc1 class_assignment=inactive
molecule="COc1cc(/C=N\\NC(=S)NC2CC3CCC2C3)cc(OC)c1OC (configuration not stated)" class_assignment=inactive
molecule=O=C(c1cccc([N+](=O)[O-])c1)c1cc2cc(Br)cc(Br)c2o1 class_assignment=inactive
molecule=Cc1ccc(OCc2nnc(SCC(=O)c3ccc(F)cc3)n2-c2ccccc2)c2c1CCC2 class_assignment=inactive
molecule=CC(=O)N[C@@H](Cc1c[nH]c2ccccc12)C(=O)O class_assignment=inactive
molecule=N#C/C(=C\N(CCS(=O)(=O)c1ccc(Cl)cc1)Cc1cccs1)S(=O)(=O)c1ccc(Cl)cc1 class_assignment=inactive
molecule=COc1cccc(Nc2nc3ccccc3s2)c1 class_assignment=active
molecule="CC(N)C(O)c1ccc(O)c(O)c1 (configuration not stated)" class_assignment=inactive
molecule=C=CCn1c(COc2c(Br)cc(C)c3c2CCC3)n[nH]c1=S class_assignment=inactive
molecule=COc1ccc2c(=O)ccoc2c1 class_assignment=inactive
molecule=COc1c2ccoc2cc2oc(C)cc(=O)c12 class_assignment=inactive
molecule="CC1=CC(=O)C2=C(C)CC(O)C3C(C)C(=O)OC3C12 (configuration not stated)" class_assignment=inactive
molecule=COC(=O)c1scc(S(=O)(=O)C(C)C)c1N/N=C(/C#N)C(=O)c1ccccc1 class_assignment=inactive
molecule=CC(=O)NCCc1c[nH]c2ccccc12 class_assignment=inactive
molecule=CC(=O)[O][Hg][c]1ccccc1 class_assignment=active
molecule="CC(=O)O[C@H]1CC[C@]2(C)C3CC[C@@]4(C)C(CC5O[C@@]6(CCC(C)CO6)[C@@H](C)C54)C3CC[C@H]2C1 (some centres not stated)" class_assignment=inactive
molecule="O=c1[nH]cnc2c1ncn2C1O[C@H](CO)[C@@H](O)[C@H]1O (some centres not stated)" class_assignment=inactive
molecule=O=C1CCCN1c1ccc(Cl)c(Cl)c1 class_assignment=inactive
molecule="COc1cc2c(cc1OC)[C@@]13CCN4CC5=CCOC6CC(=O)N2C1[C@H]6[C@H]5C[C@H]43 (some centres not stated)" class_assignment=inactive
molecule=CCOc1ccc(NC(C)=O)cc1 class_assignment=inactive
molecule=CCN(CC)CCNC(=O)c1cc(Cl)c(N)cc1OC class_assignment=inactive
molecule="CC(=O)O[C@@H]1CC[C@]2(C)C3CC[C@]4(C)C(=O)CCC4C3CC[C@H]2C1 (some centres not stated)" class_assignment=inactive
